System: 565232-114-T-J1-PDC complex spheroid viability;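 also: spheroids exposed to compounds for 7 days before readout; 100% = DMSO vehicle wells with luminescence normalized to vehicle control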
assay name: Anticancer human tumor 565232-114-T-J1-PDC patient-derived bladder carcinoma cell line growth inhibition [CLK]
cond: second compound 0.1 µM; first compound 3.16 µM; hits give low values
Binning rule for recorded viability, T/C: range 1: < 30%; range 2: ≥ 30% and < 50%; range 3: ≥ 50%

Which class holds O=c1[nH]cc(F)c(=O)[nH]1 + CNC(=O)c1ccc(Nc2nc(OC3CCCC3)c3c(-c4ccc5nc(C)oc5c4)c[nH]c3n2)c(OC)c1 ?
range 2

Which class holds CC(Nc1ccc2c(c1)OCCn1cc(N3C(=O)OCC3C(F)F)nc1-2)C(N)=O (stereo not drawn) + CNC(=O)c1ccc(Nc2nc(OC3CCCC3)c3c(-c4ccc5nc(C)oc5c4)c[nH]c3n2)c(OC)c1 ?
range 2

Which class holds Nc1ccn(C2OC(CO)C(O)C2(F)F)c(=O)n1 (stereo not drawn) + CNC(=O)c1ccc(Nc2nc(OC3CCCC3)c3c(-c4ccc5nc(C)oc5c4)c[nH]c3n2)c(OC)c1 ?
range 1

Which class holds CC1COCCN1c1cc(C2(S(C)(=N)=O)CC2)nc(-c2ccnc3[nH]ccc23)n1 (stereo not drawn) + CN1CCN(c2cc(C(=O)Nc3cc4cc(-c5cnn(C)c5)ccc4cn3)ccn2)CC1 ?
range 3

Which class holds O=c1[nH]cc(F)c(=O)[nH]1 + CN1CCN(c2cc(C(=O)Nc3cc4cc(-c5cnn(C)c5)ccc4cn3)ccn2)CC1 ?
range 3

Which class holds C=C(F)C(=O)N1CCN(c2nc(OCC3CCCN3C)nc3c2CCN(c2cccc4cccc(Cl)c24)C3)CC1CC#N (stereo not drawn) + CNC(=O)c1ccc(Nc2nc(OC3CCCC3)c3c(-c4ccc5nc(C)oc5c4)c[nH]c3n2)c(OC)c1 ?
range 3
